# Test system: HT29 colon
# Assay Info: NCI-60 one-dose screen, 48 h (100 = growth as untreated, 0 = no growth, -100 = all killed)
# Condition Parameters: 10 µM
About 83,000 compounds went through this panel and 20% of them were active in at least one assay; those are over-represented in the sample as a whole.
Decision: growth >= 90% yields met, all other cases yield not met.

COc1cc2c3c(cccc3c1)C(=O)N(CCN1CCCC1)C2=O ... not met
O=C1/C(=C/c2ccc(O)cc2O)N=C2SCCCN12 ... met
C=CCNCCCN1C(=O)c2ccc3c4c(ccc(c24)C1=O)C(=O)N(CCCNCC=C)C3=O ... not met
N#Cc1c2c([nH]c(=O)c1C(N)=O)CCCCC2 ... met
FC(F)(F)c1ccc(-c2cnc(Cl)nc2NCc2cc(C(F)(F)F)cc(C(F)(F)F)c2)cc1 ... not met

Say whether NC(=O)C1CCCN(Cc2c[nH]c3ccccc23)C1 (stereo unspecified) shows growth of 90% or more.
met

Same thing, different compound: Cn1cnc([N+](=O)[O-])c1/C=C1\Oc2ccc(Cl)cc2C1=O
not met

Would you kindly repeat that for CCOC(=O)c1ccc(NC(=O)Nc2nncs2)cc1 ?
not met

Try this compound too: Cc1ccc(-c2cc(-c3cccc(Nc4ccnc5cc(Cl)ccc45)c3)nc3nc(N)[nH]c(=O)c23)cc1
met

And COc1ccc(-c2nc(-c3ccccc3)c(-c3ccccc3)[nH]2)cc1OC1CCCC1 ?
not met

Follow-up item: COc1cccc(C(=O)NNc2nc(N3CCN(C4CCCCC4)CC3)nc(N3CCN(C(c4ccccc4)c4ccccc4)CC3)n2)c1
not met

Next compound up: Nc1nc(SCC#CCCl)c2[nH]cnc2n1
not met

And for COc1cc(NS(C)(=O)=O)ccc1Nc1c2ccc(Cl)cc2nc2c(OC)cccc12 ?
not met

# repeat for Nc1cc(O)cc(O)c1
met

Proceed to Brc1ccc(-c2cn3ccnc3c(-c3ccc(Br)cc3)n2)cc1
not met

// next record O=S(=O)(NCCO)c1ccc(OCCOc2ccc(S(=O)(=O)NCCO)cc2)cc1
met
